Target protein (sequence): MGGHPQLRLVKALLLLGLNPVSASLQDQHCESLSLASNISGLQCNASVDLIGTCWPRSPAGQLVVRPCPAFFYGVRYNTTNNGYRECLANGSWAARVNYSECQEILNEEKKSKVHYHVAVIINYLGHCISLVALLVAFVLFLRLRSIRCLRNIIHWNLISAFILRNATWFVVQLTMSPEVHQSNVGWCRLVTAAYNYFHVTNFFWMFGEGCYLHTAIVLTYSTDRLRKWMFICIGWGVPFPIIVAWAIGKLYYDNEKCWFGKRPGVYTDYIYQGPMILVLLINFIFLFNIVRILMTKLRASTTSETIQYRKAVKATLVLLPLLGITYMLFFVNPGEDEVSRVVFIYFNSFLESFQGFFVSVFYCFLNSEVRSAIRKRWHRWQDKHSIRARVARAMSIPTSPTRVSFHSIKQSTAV
quantity_name: Ki (nM)

                                test_smiles  output_unit  experimental_result
0  COCCN(CCOC)c1nc(C)nc2c1sc(=S)n2-c1ccc(C(C)C)cc1Br           nM                  6.6
1  CCCN(CC1CC1)c1nc(C)nc2c1sc(=S)n2-c1ccc(C(C)C)cc1Br           nM                 12.6
2  COCCN(CCOC)c1nc(C)nc2c1sc(=O)n2-c1c(C)cc(C)cc1C           nM                    5

This collection of values is drawn from ChEMBL document CHEMBL1131681.
